Value source: ChEMBL document CHEMBL3399966

subject of test: Receptor-type tyrosine-protein kinase FLT3 (Homo sapiens, UniProt P36888)
Sequence (P36888 whole entry): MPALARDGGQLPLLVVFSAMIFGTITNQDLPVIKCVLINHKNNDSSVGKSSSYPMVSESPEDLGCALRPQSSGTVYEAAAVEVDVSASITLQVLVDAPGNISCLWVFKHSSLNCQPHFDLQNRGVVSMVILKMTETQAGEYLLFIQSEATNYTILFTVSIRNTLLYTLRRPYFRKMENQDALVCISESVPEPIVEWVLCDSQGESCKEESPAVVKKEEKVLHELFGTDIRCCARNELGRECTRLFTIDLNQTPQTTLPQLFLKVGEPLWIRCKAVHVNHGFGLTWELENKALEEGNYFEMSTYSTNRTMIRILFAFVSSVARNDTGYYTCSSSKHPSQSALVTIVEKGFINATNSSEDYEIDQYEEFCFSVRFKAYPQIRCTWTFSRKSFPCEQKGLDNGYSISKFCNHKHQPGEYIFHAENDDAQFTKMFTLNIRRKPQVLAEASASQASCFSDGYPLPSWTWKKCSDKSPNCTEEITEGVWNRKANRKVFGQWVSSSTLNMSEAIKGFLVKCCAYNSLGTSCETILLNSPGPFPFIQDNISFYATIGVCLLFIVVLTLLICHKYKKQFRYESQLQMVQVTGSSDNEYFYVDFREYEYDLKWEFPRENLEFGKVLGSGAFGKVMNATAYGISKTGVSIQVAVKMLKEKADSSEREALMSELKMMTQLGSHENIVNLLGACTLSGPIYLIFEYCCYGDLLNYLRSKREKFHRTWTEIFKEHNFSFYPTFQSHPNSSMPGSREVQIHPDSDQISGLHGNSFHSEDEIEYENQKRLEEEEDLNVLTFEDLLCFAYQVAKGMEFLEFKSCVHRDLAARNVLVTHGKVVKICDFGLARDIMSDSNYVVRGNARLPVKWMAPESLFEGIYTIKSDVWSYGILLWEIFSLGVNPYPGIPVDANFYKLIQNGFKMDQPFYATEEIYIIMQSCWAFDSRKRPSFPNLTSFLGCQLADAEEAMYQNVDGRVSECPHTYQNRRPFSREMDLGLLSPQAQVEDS
observable: pKi
One number for each entry, as −log10 of the molar value.

Sample answers from the record:
Cc1nnc([C@H]2C3CCC(CC3)[C@@H]2Nc2nc(-c3c[nH]c4ncc(F)cc34)ncc2F)o1 (mixture of isomers) = 5.74
OCC(O)[C@H]1C2CCC(CC2)[C@@H]1Nc1nc(-c2c[nH]c3ncc(F)cc23)ncc1F (mixture of isomers) = 6.80
CS(=O)(=O)[C@H]1C2CCC(CC2)[C@@H]1Nc1nc(-c2c[nH]c3ncc(F)cc23)ncc1F (mixture of isomers) = 6.08
Oc1cc([C@H]2C3CCC(CC3)[C@@H]2Nc2nc(-c3c[nH]c4ncc(F)cc34)ncc2F)[nH]n1 (mixture of isomers) = 5.40
CC(O)[C@H]1C2CCC(CC2)[C@@H]1Nc1nc(-c2c[nH]c3ncc(F)cc23)ncc1F (mixture of isomers) = 6.82

I would be grateful if you could provide pKi for each of the following entries.
1. Oc1cc([C@H]2C3CCC(CC3)[C@@H]2Nc2nc(-c3c[nH]c4ncc(F)cc34)ncc2F)no1 (mixture of isomers)
2. O=c1[nH]c(=O)n(C[C@H]2C3CCC(CC3)[C@@H]2Nc2nc(-c3c[nH]c4ncc(F)cc34)ncc2F)o1 (mixture of isomers)
3. CNC(=O)[C@H]1C2CCC(CC2)[C@@H]1Nc1nc(-c2c[nH]c3ncc(F)cc23)ncc1F (mixture of isomers)
4. CC(=O)NS(=O)(=O)[C@H]1C2CCC(CC2)[C@@H]1Nc1nc(-c2c[nH]c3ncc(F)cc23)ncc1F (mixture of isomers)

Reply |
1. 6.10
2. 6.68
3. 5.85
4. 5.55
